Entries and their IC50 values follow.
- target-entity: ATP-dependent translocase ABCB1 (Homo sapiens)
- Sequence (P08183 whole entry): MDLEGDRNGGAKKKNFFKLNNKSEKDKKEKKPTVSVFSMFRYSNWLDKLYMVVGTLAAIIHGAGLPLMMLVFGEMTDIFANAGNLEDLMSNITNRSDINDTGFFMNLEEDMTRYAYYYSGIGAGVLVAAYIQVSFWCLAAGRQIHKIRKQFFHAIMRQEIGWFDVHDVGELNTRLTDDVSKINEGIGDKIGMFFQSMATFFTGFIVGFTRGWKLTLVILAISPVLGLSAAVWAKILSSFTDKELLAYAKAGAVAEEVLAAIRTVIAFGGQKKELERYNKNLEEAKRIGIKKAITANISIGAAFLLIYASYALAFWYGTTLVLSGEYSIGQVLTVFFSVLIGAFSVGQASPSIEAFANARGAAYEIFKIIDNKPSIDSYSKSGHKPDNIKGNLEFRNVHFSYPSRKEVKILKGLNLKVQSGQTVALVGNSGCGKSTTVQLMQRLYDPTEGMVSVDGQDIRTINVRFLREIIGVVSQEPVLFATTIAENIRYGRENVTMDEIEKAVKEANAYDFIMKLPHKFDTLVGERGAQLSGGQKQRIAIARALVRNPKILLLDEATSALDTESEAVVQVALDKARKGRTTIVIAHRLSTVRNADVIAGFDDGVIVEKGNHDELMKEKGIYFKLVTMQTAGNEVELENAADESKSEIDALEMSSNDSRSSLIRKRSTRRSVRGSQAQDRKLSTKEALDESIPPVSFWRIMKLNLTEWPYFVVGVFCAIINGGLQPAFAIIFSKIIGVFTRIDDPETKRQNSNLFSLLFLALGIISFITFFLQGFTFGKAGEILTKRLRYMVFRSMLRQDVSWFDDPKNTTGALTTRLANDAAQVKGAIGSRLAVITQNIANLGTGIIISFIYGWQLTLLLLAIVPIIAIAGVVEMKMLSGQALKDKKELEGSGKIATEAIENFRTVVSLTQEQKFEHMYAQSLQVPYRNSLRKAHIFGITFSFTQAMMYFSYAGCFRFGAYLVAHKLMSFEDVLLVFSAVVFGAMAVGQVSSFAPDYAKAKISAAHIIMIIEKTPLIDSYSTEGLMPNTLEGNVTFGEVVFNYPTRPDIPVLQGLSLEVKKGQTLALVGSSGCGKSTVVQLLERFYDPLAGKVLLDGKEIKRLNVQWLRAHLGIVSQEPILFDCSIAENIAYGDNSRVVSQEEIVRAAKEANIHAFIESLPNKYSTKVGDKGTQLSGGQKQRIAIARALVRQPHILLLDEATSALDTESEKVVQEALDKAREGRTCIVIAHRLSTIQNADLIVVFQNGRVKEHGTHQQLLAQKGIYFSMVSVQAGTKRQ
- protocol-text: Inhibition of human MDR1 expressed in MDCK2 cells assessed as enhancement of Calcein-AM uptake treated 30 mins before Calcein-AM challenge measured after 20 mins
# output: bare number, implied unit µM

[
  {
    "structure-string": "C[N+](C)=c1ccc2c(-c3ccc(C(=S)N4CCCCC4)s3)c3cc4c5c(c3[se]c-2c1)CCCN5CCC4",
    "target-entity": "ATP-dependent translocase ABCB1 (Homo sapiens)",
    "property-measured": "IC50",
    "value-unit": "µM",
    "numeric-result": 5.3
  },
  {
    "structure-string": "C[N+](C)=c1ccc2c(-c3ccc(C(=S)N4CCOCC4)s3)c3cc4c5c(c3sc-2c1)CCCN5CCC4",
    "target-entity": "ATP-dependent translocase ABCB1 (Homo sapiens)",
    "property-measured": "IC50",
    "value-unit": "µM",
    "numeric-result": 20
  },
  {
    "structure-string": "C[N+](C)=c1ccc2c(-c3ccc(C(=S)N4CCOCC4)s3)c3cc4c5c(c3[se]c-2c1)CCCN5CCC4",
    "target-entity": "ATP-dependent translocase ABCB1 (Homo sapiens)",
    "property-measured": "IC50",
    "value-unit": "µM",
    "numeric-result": 14
  },
  {
    "structure-string": "C[N+](C)=c1ccc2c(-c3ccc(C(=S)N4CCCCC4)s3)c3cc4c5c(c3[te]c-2c1)CCCN5CCC4",
    "target-entity": "ATP-dependent translocase ABCB1 (Homo sapiens)",
    "property-measured": "IC50",
    "value-unit": "µM",
    "numeric-result": 14
  }
]

Prompt: Quick one: IC50 for C[N+](C)=c1ccc2c(-c3ccccc3)c3cc4c5c(c3[se]c-2c1)CCCN5CCC4.F[P-](F)(F)(F)(F)F ?
Response: 4.9

Prompt: Quick one: IC50 for CN(C)c1ccc2c(-c3ccccc3)c3ccc(=[N+](C)C)cc-3[se]c2c1 ?
Response: 11
